- Test system: MDA-MB-231
- measurement protocol: Cytotoxicity against human MDA-MB-231 cells after 3 days by MTT assay
- Format: functional, cell-based
- protocol conditions: MDA-MB-231, 72 h
Residues, ends and D or L forms follow the SMILES beside them.
Consider the following compounds and their measured IC50 readings.

// known answers, use as guide
>  <compound>
COc1cccc2c1C(=O)c1c(O)c3c(c(O)c1C2=O)C[C@@](O)(C(=O)CO)C[C@@H]3O[C@H]1C[C@H](N)[C@H](O)[C@H](C)O1

>  <measure>
IC50

>  <endpoint result>
0.73 µg/mL

$$$$
>  <compound>
COC(=O)c1ccc(OC)cc1NC(=O)c1ccccc1O [4-METHOXYDIANTHRAMIDE B]

>  <measure>
IC50

>  <endpoint result>
> 20 µg/mL

$$$$
>  <compound>
CC[C@H](C)[C@@H]1NC(=O)[C@H](C(C)C)NC(=O)[C@H](Cc2ccc(O)cc2)NC(=O)[C@H](Cc2ccccc2)NC(=O)[C@@H]2CCCN2C(=O)CNC1=O (cyclo(FYVIGP))

>  <measure>
IC50

>  <endpoint result>
> 20 µg/mL

$$$$
>  <compound>
CC[C@H](C)[C@@H]1NC(=O)[C@@H]2CCCN2C(=O)[C@@H]2CCCN2C(=O)[C@H](CC(C)C)NC(=O)[C@H](CO)NC(=O)CNC(=O)[C@H](Cc2ccccc2)NC1=O (cyclo(FGSLPPI))

>  <measure>
IC50

>  <endpoint result>
> 20 µg/mL

$$$$

Let us examine a further case.
Data request: # lookup: IC50 of CC[C@H](C)[C@@H]1NC(=O)[C@@H]2CCCN2C(=O)CNC(=O)[C@H](C(C)C)NC(=O)[C@H](Cc2ccccc2)NC(=O)[C@H](CO)NC1=O (cyclo(FVGPIS))
Data returned: > 20 µg/mL

---

- measurement protocol: Cytotoxicity against human Hep3B cells after 3 days by MTT assay
- Format: functional, cell-based, Hep 3B2
- protocol conditions: 72 h
# IC50 values compiled below
Value expressed in µg/mL; do not type the unit.

>  <compound>
COC(=O)c1ccc(OC)cc1NC(=O)c1ccccc1O [4-METHOXYDIANTHRAMIDE B]

>  <endpoint result>
16

$$$$

From here, focus on the item given below.
Data request: Dear colleague, I am looking for the recorded IC50 of the following compound: `COc1cccc2c1C(=O)c1c(O)c3c(c(O)c1C2=O)C[C@@](O)(C(=O)CO)C[C@@H]3O[C@H]1C[C@H](N)[C@H](O)[C@H](C)O1`
Data returned: 0.31

---

IC50 values for the compounds below.
- Test system: MCF7
- measurement protocol: Cytotoxicity against human MCF7 cells after 3 days by MTT assay
- Type: functional, cell-based
- protocol conditions: MCF7, 72 h
Residues, ends and D or L forms follow the SMILES beside them.

Reference set (4 entries):
>  <compound>
CC[C@H](C)[C@@H]1NC(=O)[C@@H]2CCCN2C(=O)[C@@H]2CCCN2C(=O)[C@H](CC(C)C)NC(=O)[C@H](CO)NC(=O)CNC(=O)[C@H](Cc2ccccc2)NC1=O (cyclo(FGSLPPI))

>  <endpoint result>
> 20 µg/mL

$$$$
>  <compound>
CC[C@H](C)[C@@H]1NC(=O)[C@@H]2CCCN2C(=O)CNC(=O)[C@H](C(C)C)NC(=O)[C@H](Cc2ccccc2)NC(=O)[C@H](CO)NC1=O (cyclo(FVGPIS))

>  <endpoint result>
> 20 µg/mL

$$$$
>  <compound>
COC(=O)c1ccc(OC)cc1NC(=O)c1ccccc1O [4-METHOXYDIANTHRAMIDE B]

>  <endpoint result>
> 20 µg/mL

$$$$
>  <compound>
COc1cccc2c1C(=O)c1c(O)c3c(c(O)c1C2=O)C[C@@](O)(C(=O)CO)C[C@@H]3O[C@H]1C[C@H](N)[C@H](O)[C@H](C)O1

>  <endpoint result>
1.21 µg/mL

$$$$

Data request: Param item = CC[C@H](C)[C@@H]1NC(=O)[C@H](C(C)C)NC(=O)[C@H](Cc2ccc(O)cc2)NC(=O)[C@H](Cc2ccccc2)NC(=O)[C@@H]2CCCN2C(=O)CNC1=O (cyclo(FYVIGP)) ; retrieve measured IC50.
Data returned: > 20 µg/mL

---

- Test system: A549
- measurement protocol: Cytotoxicity against human A549 cells after 3 days by MTT assay
- Assay type: functional, cell-based
- protocol conditions: A549, 72 h
Residues, ends and D or L forms follow the SMILES beside them.
Entries and their IC50

Data request: Entry CC[C@H](C)[C@@H]1NC(=O)[C@H](C(C)C)NC(=O)[C@H](Cc2ccc(O)cc2)NC(=O)[C@H](Cc2ccccc2)NC(=O)[C@@H]2CCCN2C(=O)CNC1=O (cyclo(FYVIGP)) has what IC50?
Data returned: > 20 mg/L

Data request: What measured IC50 goes with CC[C@H](C)[C@@H]1NC(=O)[C@@H]2CCCN2C(=O)[C@@H]2CCCN2C(=O)[C@H](CC(C)C)NC(=O)[C@H](CO)NC(=O)CNC(=O)[C@H](Cc2ccccc2)NC1=O (cyclo(FGSLPPI)) ?
Data returned: > 20 mg/L

Data request: What IC50 value was documented for this molecule, CC[C@H](C)[C@@H]1NC(=O)[C@@H]2CCCN2C(=O)CNC(=O)[C@H](C(C)C)NC(=O)[C@H](Cc2ccccc2)NC(=O)[C@H](CO)NC1=O (cyclo(FVGPIS)) ?
Data returned: > 20 mg/L

Data request: Which IC50 value belongs to COC(=O)c1ccc(OC)cc1NC(=O)c1ccccc1O [4-METHOXYDIANTHRAMIDE B] ?
Data returned: > 20 mg/L

---

- measurement protocol: Cytotoxicity against human Hep3B cells after 3 days by MTT assay
- Format: functional, cell-based, Hep 3B2
- protocol conditions: 72 h
Residues, ends and D or L forms follow the SMILES beside them.
Documented IC50 across a set of molecules

// below: answered molecules
>  <molecule>
CC[C@H](C)[C@@H]1NC(=O)[C@@H]2CCCN2C(=O)CNC(=O)[C@H](C(C)C)NC(=O)[C@H](Cc2ccccc2)NC(=O)[C@H](CO)NC1=O (cyclo(FVGPIS))

>  <IC50>
> 20 µg/mL

$$$$
>  <molecule>
CC[C@H](C)[C@@H]1NC(=O)[C@@H]2CCCN2C(=O)[C@@H]2CCCN2C(=O)[C@H](CC(C)C)NC(=O)[C@H](CO)NC(=O)CNC(=O)[C@H](Cc2ccccc2)NC1=O (cyclo(FGSLPPI))

>  <IC50>
> 20 µg/mL

$$$$

From here, focus on the item given below.
Data request: # query: IC50 of entry CC[C@H](C)[C@@H]1NC(=O)[C@H](C(C)C)NC(=O)[C@H](Cc2ccc(O)cc2)NC(=O)[C@H](Cc2ccccc2)NC(=O)[C@@H]2CCCN2C(=O)CNC1=O (cyclo(FYVIGP))
Data returned: > 20 µg/mL
